Consider compounds characterized by their IC50 with catalytic domain of human Bub1 (amino acids 704-1085) (Homo sapiens).
Sequence (O43683 704-1085): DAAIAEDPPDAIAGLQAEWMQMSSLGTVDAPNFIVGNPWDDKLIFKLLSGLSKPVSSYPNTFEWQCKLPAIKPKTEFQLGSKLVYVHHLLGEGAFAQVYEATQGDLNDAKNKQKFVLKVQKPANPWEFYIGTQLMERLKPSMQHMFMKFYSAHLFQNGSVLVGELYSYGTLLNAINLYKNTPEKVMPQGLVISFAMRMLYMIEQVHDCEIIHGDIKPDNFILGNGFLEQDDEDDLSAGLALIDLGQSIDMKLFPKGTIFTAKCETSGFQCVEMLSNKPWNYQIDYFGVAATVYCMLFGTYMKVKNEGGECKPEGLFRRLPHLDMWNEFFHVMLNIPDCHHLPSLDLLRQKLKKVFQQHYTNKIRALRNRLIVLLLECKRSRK

For orientation, consider the following solved cases.
Smiles text: Cc1nsc(Nc2cc(C#N)ccn2)c1C(=O)Nc1ccc(OC2CCNCC2)nc1
Measurement target: catalytic domain of human Bub1 (amino acids 704-1085) (Homo sapiens)
IC50: ≥ 20 µM
//
Smiles text: Cc1nsc(Nc2cnc(C(F)(F)F)cn2)c1C(=O)Nc1ccc(O[C@@H]2CCN(CC(F)(F)F)C[C@@H]2F)nc1
Measurement target: catalytic domain of human Bub1 (amino acids 704-1085) (Homo sapiens)
IC50: > 20 µM
//
Smiles text: COC(=O)CCCc1ccc(NC(=O)c2c(C)nsc2Nc2cc(C#N)ccn2)cc1
Measurement target: catalytic domain of human Bub1 (amino acids 704-1085) (Homo sapiens)
IC50: > 20 µM

Proceed to the following item.
INPUT: Param readout= IC50; system= catalytic domain of human Bub1 (amino acids 704-1085) (Homo sapiens); entry= CCN1CC[C@H](Oc2ccc(NC(=O)c3c(C)nsc3Nc3cnc(C(F)(F)F)cn3)cn2)[C@@H](F)C1 ; returns value.
OUTPUT: 16 µM

----------
- Measurement target: CDK2/CycE (Homo sapiens, UniProt P24941)
- Construct: GST
- Test details: CDK2/CycE kinase assay (TR-FRET)
- Run conditions: avg, read-out: CDK2 avg (IC50 [mol/l])
pIC50: −log10 of the molar value.
Recorded endpoint: pIC50

For orientation, consider the following solved cases.
Compound: Cc1nsc(Nc2cnc(C(F)(F)F)cn2)c1C(=O)Nc1ccc(OC2CCN(C(=O)OC(C)(C)C)CC2)nc1
pIC50: ≤ 4.70
--
Compound: CC(=O)Nc1cc(NC(=O)c2c(C)nsc2Nc2cnc(C(F)(F)F)cn2)ccc1F
pIC50: < 4.70

INPUT: So what does the record say about pIC50 for Cc1nsc(Nc2cnc3ccccc3n2)c1C(=O)Nc1cccc(C(=O)NC2CC2)c1 ?
OUTPUT: < 4.70

INPUT: So what does the record say about pIC50 for Cc1nsc(Nc2cnc(C(F)(F)F)cn2)c1C(=O)Nc1ccc(OCCCNCCC(F)(F)F)nc1 ?
OUTPUT: < 4.70

----------
- System: HeLa
- Test details: Proliferation assay (crystal violet), HeLa
- Type: cell-based
- Run conditions: HeLa cells; 4 days incubation; crystal violet staining; read-out: IC50 inhibition of proliferation, HeLa
Recorded endpoint: IC50 (nM)

For orientation, consider the following solved cases.
Compound: Cc1nsc(Nc2cnc(C(F)(F)F)cn2)c1C(=O)Nc1ccc(OC2CCN(CCC(F)(F)F)CC2)nc1
IC50 (nM): 420
//
Compound: Cc1nsc(Nc2cnc(C(F)(F)F)cn2)c1C(=O)Nc1ccc(OC[C@@H]2CCCN(CCC(F)(F)F)C2)nc1
IC50 (nM): 370
//
Compound: Cc1nsc(Nc2cnc(C(F)(F)F)cn2)c1C(=O)Nc1ccc(O[C@@H]2CCN(CC(F)(F)F)C2)nc1
IC50 (nM): 550
//
Compound: Cc1nsc(Nc2cnc(C(F)(F)F)cn2)c1C(=O)Nc1ccc(O[C@@H]2CCN(CCC(F)(F)F)C2)nc1
IC50 (nM): 410
//
Compound: Cc1nsc(Nc2cnc(C(F)(F)F)cn2)c1C(=O)Nc1ccc(F)c(OCC2CCCN(CC(F)F)C2)c1 (stereo not shown) [Example 334]
IC50 (nM): 370

[P] Cc1nsc(Nc2cnc(C(F)(F)F)cn2)c1C(=O)Nc1ccc(F)c(OCC2CCN(CC(F)(F)F)C2)c1 (stereo not shown)
[Q] Cc1nsc(Nc2cnc(C(F)(F)F)cn2)c1C(=O)Nc1ccc(F)c(OCC2CCCN(CC(F)F)C2)c1 (stereo not shown) [Example 335]
INPUT: Between the two listed entries P and Q , which has its IC50 at the higher number? Answer with the label corresponding to your selection.
OUTPUT: Q
